Experiment: small-molecule binders of probe aInhba, primary screen, biochemical, small-molecule microarray, 635/667 nm fluorescence (AID 1148);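 also: score merges 667nm spot fluorescence with signal-to-noise for antibody binding to printed compounds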
Details: higher = more signal
Binary classification by composite z-score, with -0.1 as an inclusive lower bound for 1; all other cases are -1.

Recorded results for 3 compounds are shown here.
Check this compound for composite z-score at or above -0.1: CC(C)C(=O)N[C@@H]1CCCN1C(=O)C=Cc1ccccc1
1

Tell me whether composite z-score is at least -0.1 here: C[C@@H](c1ccccc1)N1C(=O)[C@H]2[C@H]3[C@H](O)[C@H](O)CC(=O)[C@@H]3CC[C@H]2C1=O
1

Evaluate C=C(C)C(=O)OC[C@@H]1CN2[C@@H](CC[C@@H](C)[C@@H]2c2ccc(Br)cc2)C(=O)O1 : composite z-score at minimum -0.1?
1

***
In plain terms: is recorded composite z-score at least -0.1 for CCOC(=O)NN=C1C[C@@H](O)[C@@H](O)[C@@H]2[C@@H]3C(=O)N(Cc4ccccc4)C(=O)[C@@H]3CC[C@@H]12 ?
-1

# check: composite z-score of CC(C)=NO[C@@H](C)c1cc(-c2c(C)cc(C)cc2C)no1 is greater than or equal to -0.1
-1

###

# composite z-score listing for each entry below
Target: Neurogenic locus notch homolog protein 2 (Homo sapiens) (UniProt Q04721)
Sequence (Q04721 whole entry, looked up): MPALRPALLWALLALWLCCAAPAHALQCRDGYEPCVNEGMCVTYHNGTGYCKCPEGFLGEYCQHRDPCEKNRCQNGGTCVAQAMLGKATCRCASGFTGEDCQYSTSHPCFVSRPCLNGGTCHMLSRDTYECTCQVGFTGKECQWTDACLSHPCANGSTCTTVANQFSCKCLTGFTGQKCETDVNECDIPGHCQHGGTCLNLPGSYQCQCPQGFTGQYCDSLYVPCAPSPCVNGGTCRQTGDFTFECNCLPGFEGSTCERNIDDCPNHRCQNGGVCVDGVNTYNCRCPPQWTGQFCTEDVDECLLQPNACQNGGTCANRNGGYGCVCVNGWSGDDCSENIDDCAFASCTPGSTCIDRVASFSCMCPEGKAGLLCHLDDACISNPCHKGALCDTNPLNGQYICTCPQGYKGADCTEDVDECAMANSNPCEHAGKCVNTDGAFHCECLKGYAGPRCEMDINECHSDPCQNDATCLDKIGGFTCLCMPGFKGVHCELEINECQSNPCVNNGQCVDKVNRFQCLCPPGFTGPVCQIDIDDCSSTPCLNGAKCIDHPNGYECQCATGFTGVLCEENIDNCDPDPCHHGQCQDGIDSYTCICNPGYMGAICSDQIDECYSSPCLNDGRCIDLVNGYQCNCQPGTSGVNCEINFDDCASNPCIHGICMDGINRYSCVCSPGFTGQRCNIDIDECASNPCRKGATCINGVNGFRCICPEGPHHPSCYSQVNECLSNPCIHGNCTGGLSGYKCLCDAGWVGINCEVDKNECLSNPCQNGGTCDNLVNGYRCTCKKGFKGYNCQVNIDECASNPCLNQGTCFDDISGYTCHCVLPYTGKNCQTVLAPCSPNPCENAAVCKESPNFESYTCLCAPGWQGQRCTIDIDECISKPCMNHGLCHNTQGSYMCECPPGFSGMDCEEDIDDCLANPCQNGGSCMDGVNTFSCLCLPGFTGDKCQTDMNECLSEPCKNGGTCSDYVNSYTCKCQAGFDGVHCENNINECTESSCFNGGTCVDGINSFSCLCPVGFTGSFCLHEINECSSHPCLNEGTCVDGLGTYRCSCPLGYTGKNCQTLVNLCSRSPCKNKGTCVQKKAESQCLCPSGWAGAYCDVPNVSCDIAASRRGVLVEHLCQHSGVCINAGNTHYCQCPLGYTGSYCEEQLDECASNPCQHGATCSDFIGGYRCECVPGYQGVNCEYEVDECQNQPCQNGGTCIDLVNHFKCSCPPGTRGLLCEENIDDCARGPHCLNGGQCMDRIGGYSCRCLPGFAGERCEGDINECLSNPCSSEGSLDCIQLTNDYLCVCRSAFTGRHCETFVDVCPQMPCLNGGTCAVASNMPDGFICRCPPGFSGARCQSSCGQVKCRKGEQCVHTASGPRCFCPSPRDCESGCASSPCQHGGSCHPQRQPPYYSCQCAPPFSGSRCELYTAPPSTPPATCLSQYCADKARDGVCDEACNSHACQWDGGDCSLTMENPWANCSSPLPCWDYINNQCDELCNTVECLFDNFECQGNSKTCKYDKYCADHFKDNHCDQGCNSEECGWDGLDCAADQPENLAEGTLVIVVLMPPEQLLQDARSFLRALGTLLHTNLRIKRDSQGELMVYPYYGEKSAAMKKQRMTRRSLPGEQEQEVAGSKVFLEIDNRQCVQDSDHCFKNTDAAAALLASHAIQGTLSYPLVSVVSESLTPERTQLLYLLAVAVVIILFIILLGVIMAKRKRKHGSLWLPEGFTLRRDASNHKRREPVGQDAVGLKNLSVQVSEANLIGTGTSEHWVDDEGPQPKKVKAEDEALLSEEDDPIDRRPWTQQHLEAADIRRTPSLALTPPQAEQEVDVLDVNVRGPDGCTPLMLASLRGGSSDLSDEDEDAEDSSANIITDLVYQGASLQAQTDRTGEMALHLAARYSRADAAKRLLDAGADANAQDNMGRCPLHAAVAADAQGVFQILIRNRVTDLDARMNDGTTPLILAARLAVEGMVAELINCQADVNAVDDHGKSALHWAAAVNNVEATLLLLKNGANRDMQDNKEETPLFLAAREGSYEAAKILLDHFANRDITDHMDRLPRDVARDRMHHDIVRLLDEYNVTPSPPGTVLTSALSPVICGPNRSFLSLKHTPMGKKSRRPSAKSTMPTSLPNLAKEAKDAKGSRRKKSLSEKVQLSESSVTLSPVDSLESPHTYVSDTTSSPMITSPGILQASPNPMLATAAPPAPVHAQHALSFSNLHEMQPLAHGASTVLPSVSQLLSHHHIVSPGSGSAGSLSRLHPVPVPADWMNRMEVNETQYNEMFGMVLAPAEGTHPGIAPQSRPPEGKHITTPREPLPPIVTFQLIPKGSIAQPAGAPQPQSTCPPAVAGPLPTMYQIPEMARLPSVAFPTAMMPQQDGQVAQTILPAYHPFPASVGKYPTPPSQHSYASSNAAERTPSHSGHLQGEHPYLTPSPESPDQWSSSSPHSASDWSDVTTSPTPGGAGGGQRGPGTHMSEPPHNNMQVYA
Assay: Notch2 binders on small-molecule microarrays, primary screen, biochemical, small-molecule microarray, 635 nm fluorescence, stem cell growth factors (AID 1073)
Settings: Notch2 binding, higher = more signal
Write the value as a bare number.

// known answers, use as guide
# query: composite z-score of entry COc1ccc(COC(=O)NN=C2C[C@@H](O)[C@@H](O)[C@@H]3[C@@H]4C(=O)N(C(C)(C)C)C(=O)[C@@H]4CC[C@H]23)cc1
0.29

composite z-score lookup needed for CC(C)=CCCC(C)=CCON=C1C[C@@H](O)[C@@H](O)[C@@H]2[C@@H]3C(=O)N([C@@H](C)c4ccccc4)C(=O)[C@@H]3CC[C@H]12 , thanks.
0.744

Sample COC(=O)[C@H](C)NC(=O)CCC1CC(OC(=O)NCCc2ccc(F)cc2)CC2(CCCC(COC(=O)NCCCN3CCCC3=O)O2)O1 (stereo partly specified) — what was its composite z-score?
1.25

Which composite z-score is reported for this compound? C=C(C)C(=O)OC[C@@H]1CN2[C@@H](CC[C@@H](C)[C@@H]2c2ccc(Br)cc2)C(=O)O1
0.636

If you can, please state the reported composite z-score value of CCCNC(=O)OC[C@H]1O[C@H](CCON=C(C)CCC(=O)OC[C@H]2O[C@H](C#Cc3ccccc3)C=C[C@@H]2Oc2ccc(C)cc2)C=C[C@@H]1Oc1ccc(OC)cc1 .
-0.0132

// switching to the query compound
// lookup composite z-score for CCN1C(=O)[C@H]2[C@H]3[C@H](O)[C@H](O)CC(=NNC(=O)OCc4ccc(OC)cc4)[C@H]3CC[C@H]2C1=O
-0.0863

###

Biological target: Fibroblast growth factor 10 (Homo sapiens)
Experiment: FGF10 binders on small-molecule microarrays, primary screen, biochemical, small-molecule microarray, 635 nm fluorescence (AID 1102)
Conditions: FGF10 binding, fluorescence 635 nm, higher = more signal
# composite z-score annotations

Consider the worked cases shown below.
Name the reported composite z-score value associated with the compound COC(=O)[C@H](C)NC(=O)CCC1CC(OC(=O)NCCc2ccc(F)cc2)CC2(CCCC(COC(=O)NCCCN3CCCC3=O)O2)O1 (stereo not given in full)
1.14

// lookup composite z-score for C[C@@H](c1ccccc1)N1C(=O)[C@H]2[C@H]3[C@H](O)[C@H](O)CC(=O)[C@@H]3CC[C@H]2C1=O
0.685

May I ask what composite z-score has been recorded for CO[C@@H]1C=CCC(=O)N2CCC[C@H]2C(=O)OC[C@H](C)C(=O)OC[C@H]1C ?
0.243

If you can, please state the reported composite z-score value of CCOC(=O)NN=C1C[C@@H](O)[C@@H](O)[C@@H]2[C@@H]3C(=O)N(Cc4ccccc4)C(=O)[C@@H]3CC[C@@H]12 .
0.118

Further cases:
Recorded composite z-score for CO[C@H]1COC(=O)[C@H](C)NC(=O)CC=C[C@@H](C)[C@H](OC)COC(=O)CC=C[C@@H]1C , please?
0.504

Which composite z-score is listed for CCOC(=O)CCN1C(=O)[C@H]2[C@H]3[C@H](O)[C@H](O)CC(=NNC(=O)OCC)[C@@H]3CC[C@H]2C1=O ?
0.283

Which composite z-score is reported for this compound? CCCNC(=O)OC[C@H]1O[C@H](CCON=C(C)CCN2CCc3nc(-c4ccccc4)c(-c4ccccc4)cc3C2)C=C[C@@H]1Oc1ccc(OC)cc1
0.0705

###

Target: NADPH oxidase 2 (Homo sapiens) (UniProt P04839)
Sequence (P04839 whole entry, looked up): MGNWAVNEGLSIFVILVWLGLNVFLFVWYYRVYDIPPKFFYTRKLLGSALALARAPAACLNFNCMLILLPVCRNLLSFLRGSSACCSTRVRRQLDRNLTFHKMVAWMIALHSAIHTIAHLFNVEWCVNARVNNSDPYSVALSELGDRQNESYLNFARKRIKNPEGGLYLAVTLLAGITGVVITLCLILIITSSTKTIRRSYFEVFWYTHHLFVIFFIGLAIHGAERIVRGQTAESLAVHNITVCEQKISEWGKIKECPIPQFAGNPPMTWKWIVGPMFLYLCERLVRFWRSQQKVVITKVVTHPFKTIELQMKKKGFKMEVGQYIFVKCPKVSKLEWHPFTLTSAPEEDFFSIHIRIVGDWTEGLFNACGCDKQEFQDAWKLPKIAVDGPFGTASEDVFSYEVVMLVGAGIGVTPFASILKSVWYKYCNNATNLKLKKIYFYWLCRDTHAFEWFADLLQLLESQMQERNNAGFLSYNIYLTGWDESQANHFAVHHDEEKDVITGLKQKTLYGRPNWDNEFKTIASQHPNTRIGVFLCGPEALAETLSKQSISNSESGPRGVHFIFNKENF
Test: NOX2-dependent H2O2 signal modulators, primary screen, NOX inhibitor project, cell-based, HEK293-NOX2, PMA-stimulated, Amplex Red fluorescence (AID 1159); also: test concentration not given here
Settings: 45 min, higher = more signal, called active from +8 up or from −8 down
ATTRIBUTE_MEASURED: z-score
# respond with the number and nothing more

# lookup: z-score of CC(C)CCN1CCc2nc(-c3ccccc3)c3c(c2C1)CO[C@@H](C)C3
1.12

Using the record for CC(C)C(=O)N[C@@H]1CCCN1C(=O)C=Cc1ccccc1 , report its z-score.
-0.457

Sample C[C@@H](c1ccccc1)N1C(=O)[C@H]2[C@H]3[C@H](O)[C@H](O)CC(=O)[C@@H]3CC[C@H]2C1=O — what was its z-score?
-0.0197

So what's the measured z-score for this one? C[C@@H](ON=C1[C@H]2CCn3c(=O)n(-c4ccccc4)c(=O)n3[C@H]2[C@H](O)[C@@H]2O[C@H]12)c1cn([C@H](CO)Cc2ccccc2)nn1
-0.622

Form field: reported z-score of CCOC(=O)NN=C1C[C@@H](O)[C@@H](O)[C@@H]2[C@@H]3C(=O)N(Cc4ccccc4)C(=O)[C@@H]3CC[C@@H]12
-0.6

Continuing:
What value of z-score has been reported for the following compound? C=C(C)C(=O)OC[C@@H]1CN2[C@@H](CC[C@@H](C)[C@@H]2c2ccc(Br)cc2)C(=O)O1
-0.29

Need z-score, item CO[C@H]1COC(=O)CC=C[C@@H](C)COC(=O)[C@@H](OCc2ccccc2)C=C[C@@H]1C
0.46

What does the data say about its z-score? Entry: CC(C)=NOCc1ccc(-c2cn([C@@H]3COC[C@H]3O)nn2)cc1
0.606

Need z-score of O=C1[C@H]2[C@H]3[C@H](O)[C@H](O)CC(=NOCc4ccccc4)[C@H]3CC[C@H]2C(=O)N1Cc1ccccc1 , thanks.
-1.14

Give the measured z-score of CC(C)=NOC[C@@H](O)COCc1ccco1 .
0.0371

Which value of z-score has been reported for O=C(NN=C1C[C@@H](O)[C@@H](O)[C@@H]2[C@@H]3C(=O)N(Cc4ccc5c(c4)OCO5)C(=O)[C@@H]3CC[C@H]12)OCc1ccccc1 in the records?
-1.32

###

Experiment: RPMI8226 myeloma cell viability, profiling panel, resazurin fluorescence, basal, 24 h, PK04 Diversity Set (AID 1180);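 also: RPMI8826 multiple myeloma cell line at 5000 cells per well; test concentration not given here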
Conditions: higher = more signal
Use y when the recorded z-score is no lower than 0.2; use n when it is lower.

Can CCN1C(=O)[C@H]2[C@H]3[C@H](O)[C@H](O)CC(=NOC)[C@@H]3CC[C@H]2C1=O be said to have z-score at or above 0.2?
n

Decide: z-score of CCCNC(=O)OC[C@H]1O[C@H](CCON=C(C)CCC(=O)OC[C@H]2O[C@H](C#Cc3ccccc3)C=C[C@@H]2Oc2ccc(C)cc2)C=C[C@@H]1Oc1ccc(OC)cc1 >= 0.2?
y

# check: z-score of CCOC(=O)NN=C1C[C@@H](O)[C@@H](O)[C@@H]2[C@@H]3C(=O)N(Cc4ccccc4)C(=O)[C@@H]3CC[C@@H]12 is greater than or equal to 0.2
y

---
Check the entry CC(C)CCN1CCc2nc(-c3ccccc3)c3c(c2C1)CO[C@@H](C)C3 : does z-score equal or exceed 0.2?
n

Does the molecule CO[C@@H]1C=CCC(=O)N2CCC[C@H]2C(=O)OC[C@H](C)C(=O)OC[C@H]1C have recorded z-score that is 0.2 or more?
y

Reported z-score at or above 0.2? CO[C@H]1COC(=O)[C@H](C)NC(=O)CC=C[C@@H](C)[C@H](OC)COC(=O)CC=C[C@@H]1C
y

# bool: z-score of CCCNC(=O)OC[C@H]1O[C@H](CCON=C(C)CCN2CCc3nc(-c4ccccc4)c(-c4ccccc4)cc3C2)C=C[C@@H]1Oc1ccc(OC)cc1 >= 0.2
n

Has CC(C)CON=C1C[C@@H](O)[C@@H](O)[C@@H]2[C@@H]3C(=O)N(c4cccc(Oc5ccccc5)c4)C(=O)[C@@H]3CC[C@H]12 a recorded z-score greater than or equal to 0.2?
y

In plain terms: is recorded z-score at least 0.2 for CC(C)=NO[C@@H](C)c1cc(-c2c(C)cc(C)cc2C)no1 ?
n

Item CO[C@H]1COC(=O)CC=C[C@@H](C)COC(=O)[C@@H](OCc2ccccc2)C=C[C@@H]1C with z-score of 0.2 or above?
n

Check the entry CC(=O)OC[C@H]1O[C@H](C#CC(C)(C)C)C=C[C@@H]1OC(C)=O : does z-score equal or exceed 0.2?
n

Is z-score at least 0.2? Consider C=C(C)C(=O)OC[C@@H]1CN2[C@@H](CC[C@@H](C)[C@@H]2c2ccc(Br)cc2)C(=O)O1
n

Decide: z-score of CCOC(=O)NN=C1C[C@@H](O)[C@@H](O)[C@@H]2[C@@H]3C(=O)N(Cc4ccc5c(c4)OCO5)C(=O)[C@@H]3CC[C@@H]12 >= 0.2?
y

Data credit: PubChem BioAssay
